Experiment: protein stability index of a GFP-peptide fusion (yeast GPS) (PSI 1-4); higher = more stable; sorted into four equal gates, so the index is relative within each strain
Conditions: pdr5∆
metric name: protein stability index
Quick one: just the number, no unit, thanks!

Here's what some known entries look like.
>>> reported_result("KHSVTEYIFEAHEIIKR [CDC53]")
1.87
>>> reported_result("RQKARTDAHTPLARNYI [RPR2]")
2.52

Q) Give the reported value of protein stability index for this record: ATMSVFLQRIDFQIDGN [RRI2]
A) 2.99

Q) Give the reported value of protein stability index for this record: RRVNQAIALLTIGAREA [RPS5]
A) 2.72

Q) Give the reported value of protein stability index for this record: NLNELESQLQMDRTSLR [SMC3]
A) 2.59

Q) Give the reported value of protein stability index for this record: QVRNQVFMLDTKRLGTP [RGR1]
A) 2.46

Q) Give the reported value of protein stability index for this record: GTILSSAGDDGKVRLWK [YGL100W/SEH1]
A) 3.51

Q) Give the reported value of protein stability index for this record: IEKCLKASELKLALGIA [RPN2]
A) 3.1

Q) Give the reported value of protein stability index for this record: SSHAKGIVLEKLGIESK [RPS23A]
A) 2.88

Q) Give the reported value of protein stability index for this record: LYVVGLFDTYHASKAIG [RRP6]
A) 2.38

Q) Give the reported value of protein stability index for this record: IRNLTVFTMKELAQYMK [RGR1]
A) 2.78

Q) Give the reported value of protein stability index for this record: ATGISGSVSEETELFEP [ECM29]
A) 3.16

Q) Give the reported value of protein stability index for this record: LILRDFLNNGEVDSASD [RPN3]
A) 2.89

Q) Give the reported value of protein stability index for this record: GQVSMSQFNGSGNGSNP [PGD1]
A) 3.3

Q) Give the reported value of protein stability index for this record: SEPIKEIIDNWEKYEQS [FAS1]
A) 3.22

###

Assay: protein stability index of a GFP-peptide fusion (yeast GPS) (PSI 1-4); higher = more stable; sorted into four equal gates, so the index is relative within each strain
Conditions: doa10∆
Parameter: protein stability index. Scope: all listed entries.
Quick one: just the number, no unit, thanks!

Here's what some known entries look like.
>>> reported_result("IKQQQQQQQQQNGQQPP [YML103C/NUP188]")
2.31
>>> reported_result("MNFISKEEFIMMVNISV [PCI8]")
1.41
>>> reported_result("IPGLSAGVNNDNTKESK [RTT102]")
3.59
>>> reported_result("VVTSSVAESFTDEADSS [SNF2]")
3.03
>>> reported_result("AGILRGYDIFLNVVLDD [SMX2]")
3.14

Q) Give the reported value of protein stability index for this record: AYELRTKSKEQLASQLV [RPL35A]
A) 3.02

Q) Give the reported value of protein stability index for this record: KPGSKPEKTSTELVDGR [SIR3]
A) 3.16

Q) Give the reported value of protein stability index for this record: TPDDDEIDVENHDRINI [RPN8]
A) 3.37

Q) Give the reported value of protein stability index for this record: IYKSIFNVVDVGVDQLS [YJL039C/NUP192]
A) 3.11

Q) Give the reported value of protein stability index for this record: RPGRIDRKIEFPPPSVA [RPT6]
A) 3.21

Q) Give the reported value of protein stability index for this record: DNVQANDPAREKFSSFI [SNF12]
A) 2.94

Q) Give the reported value of protein stability index for this record: QLHFSLLDEEAEQSFDQ [RPO21]
A) 2.51

Q) Give the reported value of protein stability index for this record: LGAVAGLIPYPHHNQSP [RET1]
A) 2.65

Q) Give the reported value of protein stability index for this record: ALPRGARTATVSKKWAA [RPL14A]
A) 2.25

###

Test: protein stability index of a GFP-peptide fusion (yeast GPS) (PSI 1-4); higher = more stable; sorted into four equal gates, so the index is relative within each strain
Conditions: doa10∆
Parameter: protein stability index. Scope: all listed entries.

Here's what some known entries look like.
>>> reported_result("VVEPEHMADAKIMPKDI [SIR4]")
3.28
>>> reported_result("TAETNNKVHETSSKSSS [YDL088C/ASM4]")
2.86
>>> reported_result("SSSNGGGSAKPSLKFKP [RPC53]")
2.61
>>> reported_result("DNDSLTDLESLSSGESN [SIR4]")
3.15
>>> reported_result("VVGVVGYVETPRGLRSL [RPL3]")
2.15
>>> reported_result("RFPETMDETQTRAKIGG [RPO21]")
3.17

Q) Give the reported value of protein stability index for this record: NGIPLKSKERSSQFVRL [YMR129W/POM152]
A) 2.75

Q) Give the reported value of protein stability index for this record: LESYLIVHHPYQSLKQI [SSN8]
A) 2.33

Q) Give the reported value of protein stability index for this record: KANISLETLEHNGAPHH [RPO21]
A) 3.29

Q) Give the reported value of protein stability index for this record: SEEIDSLNEDVEEIKLQ [SMC2]
A) 3.19

Q) Give the reported value of protein stability index for this record: QKLLKQLDSDANKLSKS [ISW2]
A) 3.03

Q) Give the reported value of protein stability index for this record: YVTKPMVNESDGVTHAL [RPB2]
A) 3.2

Q) Give the reported value of protein stability index for this record: PDKLLGVILMFAAILVL [COB]
A) 1.63

Q) Give the reported value of protein stability index for this record: NGLIISWSNGKITSPIR [RRP42]
A) 3.12

###

Assay: protein stability index of a GFP-peptide fusion (yeast GPS) (PSI 1-4); higher = more stable; sorted into four equal gates, so the index is relative within each strain
Conditions: pdr5∆
metric name: protein stability index
Quick one: just the number, no unit, thanks!

Here's what some known entries look like.
>>> reported_result("SELPDIYSRDIGAELKR [SNF2]")
3.26
>>> reported_result("NLSEARLVIKEALVERR [RPB4]")
2.75
>>> reported_result("NNNNTNTQPSASGFGFG [YGR119C/NUP57]")
2.28
>>> reported_result("LSSIAERVRNFAVIYLC [DIB1]")
2.04
>>> reported_result("DDVRDFVIRREVTKGEK [RPS6A]")
3.4

Q) Give the reported value of protein stability index for this record: FLYEILSSLKSFAIYSS [SRB8]
A) 1.16

Q) Give the reported value of protein stability index for this record: IGLVKCTQMTDEGLLNM [GRR1]
A) 2.91

Q) Give the reported value of protein stability index for this record: TRVNAQLESYEYMVQYI [RRI1]
A) 3.23

Q) Give the reported value of protein stability index for this record: ESQQQDESLKDEATVPN [SWI3]
A) 3.36

Q) Give the reported value of protein stability index for this record: GRSHTRNSTRSSGFNED [REC8]
A) 3.55

Q) Give the reported value of protein stability index for this record: MSGSLKSLDKKIAKRRQ [POP3]
A) 2.98

Q) Give the reported value of protein stability index for this record: YNVCDTSKSLVKRYRLA [SIN4]
A) 2.81

Q) Give the reported value of protein stability index for this record: NGIPLKSKERSSQFVRL [YMR129W/POM152]
A) 2.6

Q) Give the reported value of protein stability index for this record: TLDKPNAEATKEEFSSA [CSE2]
A) 3.12

###

Assay: protein stability index of a GFP-peptide fusion (yeast GPS) (PSI 1-4); higher = more stable; sorted into four equal gates, so the index is relative within each strain
Settings: ubr1∆
Class (required): determined from protein stability index; valid ranges are low class: < 2; middle class: ≥ 2 and < 3; high class: ≥ 3

Solved cases (10 shown):
>>> classification("IEEQGDALQDVEESSEK [DPB4]")
"high class"
>>> classification("ADVFRRCLVAVIQQDKY [SRP72]")
"middle class"
>>> classification("GNSFNKSSNDTIEHAAD [YCG1]")
"middle class"
>>> classification("FSSPAALMKTLIKFVDL [NUT1]")
"low class"
>>> classification("FANNLKSAISNNFRESD [SIR4]")
"middle class"
>>> classification("LKFMAASEVATHSKLFA [PRP8]")
"middle class"
>>> classification("YDGVERVSLQDIKDFAD [QCR2]")
"middle class"
>>> classification("EGNQIIVFVHSRKETSR [BRR2]")
"middle class"
>>> classification("YNVCDTSKSLVKRYRLA [SIN4]")
"high class"
>>> classification("SSSKSMINDENYIINDI [SRB8]")
"middle class"

Q) Which class is correct for the following sequence? NSKNDSANVELFKRDCN [YCS4]
A) high class

Q) Which class is correct for the following sequence? DKQAEGTPLFTFGKKAD [YOR098C/NUP1]
A) low class
